Protocol Notes: Fraction unbound in Wistar Han rat white adipose tissue at 2 uM incubated for 6 hrs by equilibrium dialysis method
Below, each entry is listed with its recorded fraction unbound at 6 h, 2 µM.

Worked set:
{"columns": ["Compound", "fraction unbound at 6 h, 2 µM"],
 "data": [
  ["COc1ccc(Cc2cc([C@@H]3OC4(COC4)[C@@H](O)[C@H](O)[C@H]3O)ccc2C)cc1", 0.132],
  ["CC1(C)CN(CCC#N)C(=O)[C@@H]1Oc1ccc(C#N)c(C(F)(F)F)c1", 0.185],
  ["O=C(O)c1nc2cc(Cl)c(Cl)cc2nc1O", 0.476],
  ["O=C(O)[C@@H]1CCN(C(=O)n2cnc(-c3ccc(-c4cnc(N5CCOCC5)nc4)cc3)n2)[C@@H](c2ccccc2)C1", 0.165],
  ["COc1ccc(-c2cc3c(C(=O)O)n[nH]c3cc2Cl)cc1", 0.334]
]}

Q: Given the compound C[C@H]1COCCN1c1nc(-c2cnc(N)nc2)c2c(n1)N([C@@]1(C)CCN(C(=O)C(C)(C)N)C1)CC2 , write its reported fraction unbound at 6 h, 2 µM.
Ans: 0.281

Q: State its fraction unbound at 6 h, 2 µM for this compound: COc1ccc2ncc(F)c([C@@H](O)CC[C@@H]3CCN(CCSc4cccs4)C[C@@H]3C(=O)O)c2c1
Ans: 0.672

Q: Retrieve fraction unbound at 6 h, 2 µM measured for CN(C)C(=O)C(CCN1CCC(O)(c2ccc(Cl)cc2)CC1)(c1ccccc1)c1ccccc1 [LOPERAMIDE] and print it.
Ans: 0.00264

====

Protocol Notes: Fraction unbound in Wistar Han rat heart at 2 uM incubated for 6 hrs by equilibrium dialysis method
Readout Label: fraction unbound at 6 h, 2 µM
Lab note: record the figure alone, no unit after it.

Observe how each entry below is paired with its result.
{"columns": ["Compound", "fraction unbound at 6 h, 2 µM"],
 "data": [
  ["COc1cc2c(cc1Cc1ccccc1)C[C@H](N)C(=O)N2OC(=O)N(C)C", 0.209],
  ["O=C(O)[C@@H]1CCN(C(=O)n2cnc(-c3ccc(-c4cnc(N5CCOCC5)nc4)cc3)n2)[C@@H](c2ccccc2)C1", 0.0159],
  ["Cn1cnc(-c2ccc(O[C@H]3CCN(C(=O)Cc4ccc(OC(F)(F)F)cc4)C[C@@H]3F)c(C(N)=O)c2)c1", 0.0378],
  ["COc1cc(/C=C2\\CCCN([C@@H](C)c3ccc(F)cc3)C2=O)ccc1-n1cnc(C)c1", 0.00363],
  ["O=C(O)c1nc2cc(Cl)c(Cl)cc2nc1O", 0.284]
]}

// next entry
Q: Respond only with fraction unbound at 6 h, 2 µM recorded for CN(C)C(=O)C(CCN1CCC(O)(c2ccc(Cl)cc2)CC1)(c1ccccc1)c1ccccc1 [LOPERAMIDE]
Ans: 0.00677

====

Protocol Notes: Drug concentration in total skeletal muscle in Wistar Han rat at 1 to 2 mg/kg, iv infused for 10 to 20 hrs by LC-MS/MS analysis
Measurement Conditions: in vivo
Tick met if Ct is 100 ng/mL or greater. Tick not met if Ct is less than 100 ng/mL.

The examples below pair each entry with its known result.
{"columns": ["Molecular String", "Group"],
 "data": [
  ["Oc1noc2cc(Cl)c(Cl)cc12", "not met"],
  ["Cc1c(C(=O)O)cnn1-c1nc(-c2cccc(C(F)(F)F)c2)cs1", "not met"],
  ["CO[C@@H]1C[C@H](C(=O)Nc2ccc(-n3cc(Cl)ccc3=O)cc2F)N(C(=O)Nc2ccc(Cl)cc2)C1", "met"],
  ["O=C(O)c1nc2cc(Cl)c(Cl)cc2nc1O", "not met"],
  ["Cc1ccc(NC(=O)c2cc(Oc3ccc(S(C)(=O)=O)cc3)c3c(c2)OC(C)(C)C3)nc1", "not met"]
]}

Q: Tell me whether Ct is at least 100 ng/mL here: Cc1ccc(NC(=O)N2CCN(Cc3sc4ccccc4c3C)CC2)nc1
Ans: not met

Q: Assess whether reported Ct for O=C(O)[C@@H]1CCCN(C(=O)n2cnc(-c3ccc(-c4cnc(N5CCOCC5)nc4)cc3)n2)[C@H]1c1ccccc1 sits at 100 ng/mL or higher.
Ans: not met

Q: Item CC1(C)CN(CCC#N)C(=O)[C@@H]1Oc1ccc(C#N)c(C(F)(F)F)c1 with Ct of 100 ng/mL or above?
Ans: met

Q: Does Ct meet or surpass 100 ng/mL for COc1ccc2ncc(F)c([C@@H](O)CC[C@@H]3CCN(CCSc4cccs4)C[C@@H]3C(=O)O)c2c1 ?
Ans: not met

====

Property: fraction unbound at 6 h, 2 µM; scope: individual compounds
Protocol Notes: Fraction unbound in Wistar Han rat brain at 2 uM incubated for 6 hrs by equilibrium dialysis method
No unit in the answer, please; the number alone is enough.

{"columns": ["Molecular String", "fraction unbound at 6 h, 2 µM"],
 "data": [
  ["Cc1nc([C@@H]2CCOC2)c2c(N3CCc4c(c(C5CC5)nn4C)C3)ncnn12", 0.103]
]}

Q: Specify measured fraction unbound at 6 h, 2 µM for Oc1noc2cc(Cl)c(Cl)cc12 .
Ans: 0.103

Q: Name the recorded fraction unbound at 6 h, 2 µM of the item CO[C@@H]1C[C@H](C(=O)Nc2ccc(-n3cc(Cl)ccc3=O)cc2F)N(C(=O)Nc2ccc(Cl)cc2)C1 in your answer.
Ans: 0.0391

====

Protocol Notes: Fraction unbound in Wistar Han rat brain at 2 uM incubated for 6 hrs by equilibrium dialysis method
Label Condition met when fraction unbound at 6 h, 2 µM is at or above 0.06; anything below gets Condition not met.

{"columns": ["Molecule", "Group"],
 "data": [
  ["C[C@H](CN1CCOCC1)n1/c(=N\\C(N)=O)[nH]c2cc(/C=C3\\c4ccccc4COc4cc(F)ccc43)ccc21 [LY2623091]", "Condition not met"],
  ["N#Cc1ccc(N2N=C(N3CCC(C(=O)N4CCC(O)CC4)CC3)C[C@H]2C2CCCC2)cc1Cl", "Condition not met"],
  ["CCCC(Oc1ccc(-n2cc3ccccc3n2)cc1)c1ccc(C(=O)NCCC(=O)O)cc1 (stereo not given)", "Condition not met"],
  ["COc1cc2c(cc1Cc1ccccc1)C[C@H](N)C(=O)N2OC(=O)N(C)C", "Condition not met"],
  ["Nc1noc2ccc(-c3cc(Cl)ccc3Oc3cc(F)c(S(=O)(=O)Nc4cscn4)cc3F)cc12", "Condition not met"],
  ["COc1ccc(Cc2cc([C@@H]3OC4(COC4)[C@@H](O)[C@H](O)[C@H]3O)ccc2C)cc1", "Condition not met"],
  ["C[C@H]1C[C@H]2CSC(N)=N[C@@]2(c2cc(C#N)ccc2F)CO1", "Condition met"],
  ["COCCCN1C[C@H](C)N(C(=O)N2Cc3c(NC(=O)c4ccccn4)n[nH]c3C2(C)C)C[C@H]1C", "Condition met"],
  ["CC1(C)CN(CCC#N)C(=O)[C@@H]1Oc1ccc(C#N)c(C(F)(F)F)c1", "Condition met"]
]}

Next up:
Q: Reported fraction unbound at 6 h, 2 µM at or above 0.06? O=C(O)c1c[nH]c2cc(Cl)c(-c3ccc(CC(=O)N4CCOCC4)cc3)cc12
Ans: Condition met

====

Protocol Notes: Unbound tissue partition coefficient, ratio of drug level in brain to plasma in Wistar Han rat at 1 to 2 mg/kg, iv infused for 10 to 20 hrs by LC-MS/MS analysis
Measurement Conditions: brain/plasma
We begin with a simple list: items and their reported Kp uu.
Keep it simple and answer with nothing but the number.

{"columns": ["Compound", "Kp uu"],
 "data": [
  ["CO[C@@H]1C[C@H](C(=O)Nc2ccc(-n3cc(Cl)ccc3=O)cc2F)N(C(=O)Nc2ccc(Cl)cc2)C1", 0.064],
  ["CCC[C@H](Oc1cc(C)c(-n2cc(C(F)(F)F)cn2)c(C)c1)c1ccc(C(=O)NCCC(=O)O)cc1 [PF-06291874]", 0.026],
  ["CC(C)(O)CS(=O)(=O)c1ccc2c(c1)nc(C(C)(C)C)n2CC1CCOCC1", 0.13],
  ["COc1cc2c(cc1Cc1ccccc1)C[C@H](N)C(=O)N2OC(=O)N(C)C", 0.1]
]}

Query compound follows.
Q: Please list Kp uu recorded for the compound CN(C)C(=O)C(CCN1CCC(O)(c2ccc(Cl)cc2)CC1)(c1ccccc1)c1ccccc1 [LOPERAMIDE]
Ans: 0.002

====

Protocol Notes: Unbound tissue partition coefficient, ratio of drug level in liver to plasma in Wistar Han rat at 1 to 2 mg/kg, iv infused for 10 to 20 hrs by LC-MS/MS analysis
Measurement Conditions: liver/plasma
Readout Label: Kp uu
Number only, no unit.

Example results:
{"columns": ["Molecular String", "Observed"],
 "data": [
  ["Cc1ccc(NC(=O)c2cc(Oc3ccc(S(C)(=O)=O)cc3)c3c(c2)OC(C)(C)C3)nc1", 0.24],
  ["CC1(C)CN(CCC#N)C(=O)[C@@H]1Oc1ccc(C#N)c(C(F)(F)F)c1", 1],
  ["O=C(c1cccc(N2CCNCC2)n1)N1CCC(c2ccccc2F)CC1", 9.4],
  ["O=c1[nH]c(=S)n(CCO)c2cc[nH]c12", 1.9]
]}

Now for the compound whose Kp uu we want.
Q: Consider the compound Cn1ncc(-c2ccc(C(=O)N(c3ncccc3Cl)[C@@H]3CCCNC3)cc2)c1C(=O)O . State its measured Kp uu.
Ans: 5
